# Compound, melting point
data = [
    ("O=C(Cc1ccc(/C=C/C(=O)c2ncc[nH]2)cc1)Nc1cccc2ccccc12 [Compound 17]", "229 to 230 °C"),
    ("Cn1ccnc1C(=O)/C=C/c1ccc(CC(=O)Nc2ccc(C(F)(F)F)cc2)cc1 [Compound 26]", "222 to 226 °C"),
    ("Cn1ccnc1C(=O)/C=C/c1ccc(CC(=O)Nc2ccccc2)cc1 [Compound 27]", "184 to 186 °C"),
    ("O=C(Cc1ccc(/C=C/C(=O)c2ncc[nH]2)cc1)Nc1ccccc1 [Compound 21]", "211 to 214 °C"),
]
